Reference for the values: patent US9522881B2

target-of-assay: UBLCP1 (Homo sapiens (Human), UniProt Q8WVY7)
Sequence (Q8WVY7 whole entry, species assumed): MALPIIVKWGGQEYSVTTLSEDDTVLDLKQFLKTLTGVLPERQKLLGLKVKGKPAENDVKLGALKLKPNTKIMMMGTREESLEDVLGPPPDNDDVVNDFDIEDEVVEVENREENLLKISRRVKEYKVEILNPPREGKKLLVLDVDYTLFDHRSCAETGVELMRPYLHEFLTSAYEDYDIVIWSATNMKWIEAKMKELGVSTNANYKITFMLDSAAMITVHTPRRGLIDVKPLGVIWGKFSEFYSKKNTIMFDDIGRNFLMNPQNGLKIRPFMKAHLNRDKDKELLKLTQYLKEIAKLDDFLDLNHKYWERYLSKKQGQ
measured-metric: IC50 (µM)
Give bare numbers, in µM.

Query: Please look up its IC50: Cn1c(-c2cccc(NC(=O)C(=O)Nc3ccc(-c4ccsc4)cc3)c2)c(I)c2cc(C(=O)O)c(O)cc21 [11a-1]
Response: 9.7

----------
target-of-assay: Laforin (Homo sapiens (Human))
Sequence (O95278 whole entry, species assumed): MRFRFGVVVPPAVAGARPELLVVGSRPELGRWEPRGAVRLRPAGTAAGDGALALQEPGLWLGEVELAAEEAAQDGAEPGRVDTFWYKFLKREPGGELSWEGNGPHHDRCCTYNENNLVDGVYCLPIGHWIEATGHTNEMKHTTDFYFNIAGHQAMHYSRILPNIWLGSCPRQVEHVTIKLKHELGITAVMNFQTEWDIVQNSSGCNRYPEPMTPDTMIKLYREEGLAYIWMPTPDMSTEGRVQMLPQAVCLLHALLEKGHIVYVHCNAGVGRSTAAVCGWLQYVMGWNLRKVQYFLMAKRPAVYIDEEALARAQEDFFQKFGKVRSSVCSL
measured-metric: IC50 (µM)
Give bare numbers, in µM.

Query: Please look up its IC50: Cn1c(-c2cccc(NC(=O)C(=O)Nc3ccc(-c4ccsc4)cc3)c2)c(I)c2cc(C(=O)O)c(O)cc21 [11a-1]
Response: 12.2

----------
For SHP2 (Homo sapiens (Human)), measured IC50 is reported for the entries below.
Numbers only, in nM.

Guide cases for IC50, answers given:
Cn1c(-c2cccc(NC(=O)CCC(=O)Nc3nccs3)c2)c(I)c2cc(C(=O)O)c(O)cc21 [11c-11]	26000
Cn1c(-c2cccc(NC(=O)C(=O)Nc3cccc(-c4ccco4)c3)c2)c(I)c2cc(C(=O)O)c(O)cc21 [11a-24]	380
Cn1c(-c2cccc(NC(=O)C(=O)Nc3ccc(-c4ccsc4)cc3)c2)c(I)c2cc(C(=O)O)c(O)cc21 [11a-1]	200
Cn1c(-c2cccc(NC(=O)C(=O)Nc3ccc(-c4cccc(C#N)c4)cc3)c2)c(I)c2cc(C(=O)O)c(O)cc21 [11a-22]	310
Cn1c(-c2cccc(NC(=O)C(=O)Nc3ccc(Cl)c(C(F)(F)F)c3)c2)c(I)c2cc(C(=O)O)c(O)cc21 [11a-13]	1760

Record IC50 for all entries; do not skip any.
1. Cn1c(-c2cccc(NC(=O)C(=O)N3CCc4cc(Br)ccc43)c2)c(I)c2cc(C(=O)O)c(O)cc21 [11a-7]
2. Cn1c(-c2cccc(NC(=O)C(=O)Nc3cccc(Br)c3)c2)c(I)c2cc(C(=O)O)c(O)cc21 [11a-18]
3. Cn1c(-c2cccc(NC(=O)CCC(=O)Nc3ccc(OC(F)(F)F)cc3)c2)c(I)c2cc(C(=O)O)c(O)cc21 [11c-7]
4. Cn1c(-c2cccc(NC(=O)C(=O)Nc3ccc(-n4ccnc4)cc3)c2)c(I)c2cc(C(=O)O)c(O)cc21 [11a-12]

Response:
[1050, 2730, 8600, 1490]

Record IC50 for all entries; do not skip any.
1. Cn1c(-c2cccc(NC(=O)C(=O)Nc3ccccc3-c3ccc(CO)o3)c2)c(I)c2cc(C(=O)O)c(O)cc21 [11a-23]
2. Cn1c(-c2cccc(NC(=O)C(=O)Nc3ccc(I)cc3)c2)c(I)c2cc(C(=O)O)c(O)cc21 [11a-8]
3. Cn1c(-c2cccc(NC(=O)C(=O)Nc3nc4ccc(Br)cc4s3)c2)c(I)c2cc(C(=O)O)c(O)cc21 [11a-4]
4. Cn1c(-c2cccc(NC(=O)CCC(=O)Nc3ccc(OCc4ccccc4)c(Cl)c3)c2)c(I)c2cc(C(=O)O)c(O)cc21 [11c-3]
5. CC(C)c1ccc(NC(=O)CCC(=O)Nc2cccc(-c3c(I)c4cc(C(=O)O)c(O)cc4n3C)c2)cc1 [11c-8]
6. Cn1c(-c2cccc(NC(=O)CCC(=O)O)c2)c(I)c2cc(C(=O)O)c(O)cc21 [10c]

Response:
1: 370; 2: 1200; 3: 760; 4: 5000; 5: 10700; 6: 56000
